System: HCT-116 colon
Assay: NCI tumour cell line growth inhibition, 48 h; in the data active = GI50 below about 0.43 µM; inactive = the rest
# valid calls are t (active), f (inactive); nothing else

Could you please tell me the result logged for "O=C(O)/C=C(\c1nc2ccc([N+](=O)[O-])cc2[nH]1)c1cc(Cl)ccc1O" in this assay?
f

Tell me the assay call for "O=C(Nc1ccncc1)C(=O)c1cn(S(=O)(=O)c2cccc(F)c2)c2ccccc12" please.
f

What is the recorded call for this molecule in the test? CCCC(=O)OCC1OC(n2cnc3c(=S)nc[nH]c32)C(OC(=O)CCC)C1OC(=O)CCC (stereo not drawn)
f

Which outcome did this test record for the molecule Nc1nccc(-c2c(-c3ccc(F)cc3)ncn2C2CCC(O)CC2)n1 (stereo not drawn) ?
f

Check the results log: what was the call for "C=C(C[C@](O)(C(=O)/C=C/c1ccc(Cl)cc1)C(=O)OC)c1ccccc1" ?
f

Would you mind telling me which call this test gave "CC/C=C\C[C@H](F)C/C=C1/C(=O)C=C[C@@H]1C/C=C\CCCC(=O)O" ?
f

Per the assay record, what outcome was assigned to "CCC[CH2][Sn]1([CH2]CCC)[O]C(=O)CN=Cc2c(ccc3ccccc23)[O]1" ?
f

Short answer needed: outcome of this test for CC1(C)OC2=C(CC1Br)C(=O)C(=O)c1ccccc12 (stereo not drawn) ?
f

Entry "CCCCCCCC[C@@H](O)CC(=O)N[C@@H](CC(N)=O)C(=O)N[C@@H](CCC(N)=O)C(=O)N[C@@H](CC(=O)c1cc(C)cc(O)c1C(=O)c1c(O)cccc1O)CC(C)C" : call = ?
t

Hi, do you know how "Nc1nc(N(Cc2ccccc2)c2ccccc2)c2cn[nH]c2n1" came out in this test?
f

Entry "Cc1ccc2c(c1)Sc1c(ccc3ccccc13)N2" : call = ?
f

What was the test verdict on "COc1ccc2c(c1)CCCN2c1c2ccccc2nc2ccccc12" ?
t

GET /call?item= "C[N+]1=C(/C=C/c2ccc(O)c3ncccc23)C(C)(C)c2ccccc21" returns the recorded outcome of this test.
f

====

System: SK-OV-3 ovarian
Assay: NCI tumour cell line growth inhibition, 48 h
Can you tell me TGI for the items I'm about to list?

// Input: "CS(=O)(=O)c1ccc(-n2nc(C(F)(F)F)cc2OC2CCCC2)cc1" . Output its TGI only.
> 100 µM

Give the value of TGI reported for the following: "COc1ccc(-c2nc(-c3nc4ccc(Cl)cc4[nH]3)c3ccccn23)cc1"
4.99 µM

Tell me TGI reported for "NC(=S)N1N=C2c3ccccc3CC[C@@H]2[C@@H]1c1ccccc1"
33.9 µM

In one line, give reported TGI of the entry "Cc1ccc(NC(=O)CC(=O)n2nc(C)c(N=Nc3ccccc3C(=O)O)c2C)cc1" .
> 100 µM

Give the measured TGI for "CC(=O)N(C(C)=O)n1c(Cc2ccc(Cl)cc2)n[nH]c1=O"
> 100 µM

Give the value of TGI reported for the following: Cc1ccc([N+](=O)[O-])cc1S(=O)(=O)Nc1ccc(C2=NN(c3ccc([N+](=O)[O-])cc3[N+](=O)[O-])C(c3cccs3)C2)cc1 (centres undefined)
77.9 µM

Indicate its recorded TGI; the molecule in question is "COc1ccc2c(c1)C(=O)Cc1ccccc1CC2"
> 100 µM

Annotate the molecule "C=C(C[C@](O)(C(=O)/C=C/c1ccc(Cl)cc1)C(=O)OC)c1ccccc1" with its measured TGI.
23.1 µM

Hello, please tell me recorded TGI for this one: "COc1ccc2c(c1)[n+](=O)c(C(=O)C/C(=N/OCCCc1ccccc1)C(=O)NC13CC4CC(CC(C4)C1)C3)c(C)n2[O-]"
> 100 µM
